Target: T1, CRBN, Q96SW2;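 also: pooled lentiviral library of zinc finger degron-EGFP fusions in mCherry-positive Jurkat cells, FACS-sorted after compound exposure, with degron abundance counted by next-generation sequencing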
T1 chain: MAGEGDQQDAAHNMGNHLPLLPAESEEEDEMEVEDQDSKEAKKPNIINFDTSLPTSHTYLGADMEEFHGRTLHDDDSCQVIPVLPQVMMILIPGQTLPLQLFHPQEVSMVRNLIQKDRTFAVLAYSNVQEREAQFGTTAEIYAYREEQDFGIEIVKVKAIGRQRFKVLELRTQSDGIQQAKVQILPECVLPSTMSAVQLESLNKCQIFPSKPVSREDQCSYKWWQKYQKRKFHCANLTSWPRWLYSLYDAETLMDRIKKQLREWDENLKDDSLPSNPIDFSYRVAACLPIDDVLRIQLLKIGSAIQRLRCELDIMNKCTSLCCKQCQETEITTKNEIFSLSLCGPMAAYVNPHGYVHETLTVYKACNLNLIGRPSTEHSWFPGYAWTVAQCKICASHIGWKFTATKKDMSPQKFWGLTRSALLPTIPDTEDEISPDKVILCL
Test: log2 fold change of degron read counts, EGFP-low vs EGFP+ sorted cells (limma voom), compound-induced degradation; higher = more compound-induced degradation of the degron-EGFP fusion; degrons are variants of IKZF1/3 zinc finger 2; compound dose not given here
Conditions: Jurkat; 18 h; compound: compound 22 (5-morpholino-thalidomide)
Whole data set: some 8,300 sequences, median “log2 fold change of degron read counts, EGFP-low vs EGFP+ sorted cells (limma voom), compound-induced degradation” near -1.1, cut for the highest 2% near 3.2. The entries come from a sample that favours the highest values as a whole.
Property Measured: log2 fold change of degron read counts
Note: the reply should be a number with no unit written.

// worked examples, log2 fold change of degron read counts included
Biopolymer Sequence	Property Measured	Measurement
FTCDVCGAMFTQKGNLLRHIKL [46F_47T_49D_50V_52G_53A_54M_55F_67L_, Q9UKT9]	log2 fold change of degron read counts	-0.892
FWCPICGHKFTQKGNLLRHIKL [46F_47W_49P_50I_52G_53H_54K_55F_67L_, Q9UKT9]	log2 fold change of degron read counts	-0.231
FLCNQCGRCFTQKGNLLRHIKL [46F_47L_49N_50Q_52G_53R_54C_55F_67L_, Q9UKT9]	log2 fold change of degron read counts	-1.61
FECDQCGALFTQKGNLLRHIKL [46F_47E_49D_50Q_52G_53A_54L_55F_67L_, Q9UKT9]	log2 fold change of degron read counts	-3.86
FRCEVCGADFTQKGNLLRHIKL [46F_47R_49E_50V_52G_53A_54D_55F_67L_, Q9UKT9]	log2 fold change of degron read counts	-1.6

Q: Tell me the measured log2 fold change of degron read counts of FTCNQCGRVFTQKGNLLRHIKL [46F_47T_49N_50Q_52G_53R_54V_55F_67L_, Q9UKT9] , please.
A: -3.29

Q: Now consider FICEICGRMFTQKGNLLRHIKL [46F_47I_49E_50I_52G_53R_54M_55F_67L_, Q9UKT9] .
A: -1.85

Q: Also FVCPQCGAMFTQKGNLLRHIKL [46F_47V_49P_50Q_52G_53A_54M_55F_67L_, Q9UKT9] , if possible.
A: -0.591

Q: Would you kindly repeat that for FCCPQCGATFTQKGNLLRHIKL [46F_47C_49P_50Q_52G_53A_54T_55F_67L_, Q9UKT9] ?
A: -0.971

Q: Same lookup for FMCDICGAQFTQKGNLLRHIKL [46F_47M_49D_50I_52G_53A_54Q_55F_67L_, Q9UKT9] , please.
A: -0.152

Q: Now the sequence FYCEVCGAPFTQKGNLLRHIKL [46F_47Y_49E_50V_52G_53A_54P_55F_67L_, Q9UKT9]
A: 3.45

Q: Then FLCEVCGAPFTQKGNLLRHIKL [46F_47L_49E_50V_52G_53A_54P_55F_67L_, Q9UKT9] ?
A: 2.45

Q: Please give the result for FWCEVCGAPFTQKGNLLRHIKL [46F_47W_49E_50V_52G_53A_54P_55F_67L_, Q9UKT9] too.
A: 2.92
